Molecular target: β-Glucuronidase Bovine liver (Bos taurus, UniProt A3KMY8)
Construct: The assay involved the use of Bovine liver β-glucuronidase; purchased Sigma; host or cells: bovine liver
Sequence (A3KMY8 1-652): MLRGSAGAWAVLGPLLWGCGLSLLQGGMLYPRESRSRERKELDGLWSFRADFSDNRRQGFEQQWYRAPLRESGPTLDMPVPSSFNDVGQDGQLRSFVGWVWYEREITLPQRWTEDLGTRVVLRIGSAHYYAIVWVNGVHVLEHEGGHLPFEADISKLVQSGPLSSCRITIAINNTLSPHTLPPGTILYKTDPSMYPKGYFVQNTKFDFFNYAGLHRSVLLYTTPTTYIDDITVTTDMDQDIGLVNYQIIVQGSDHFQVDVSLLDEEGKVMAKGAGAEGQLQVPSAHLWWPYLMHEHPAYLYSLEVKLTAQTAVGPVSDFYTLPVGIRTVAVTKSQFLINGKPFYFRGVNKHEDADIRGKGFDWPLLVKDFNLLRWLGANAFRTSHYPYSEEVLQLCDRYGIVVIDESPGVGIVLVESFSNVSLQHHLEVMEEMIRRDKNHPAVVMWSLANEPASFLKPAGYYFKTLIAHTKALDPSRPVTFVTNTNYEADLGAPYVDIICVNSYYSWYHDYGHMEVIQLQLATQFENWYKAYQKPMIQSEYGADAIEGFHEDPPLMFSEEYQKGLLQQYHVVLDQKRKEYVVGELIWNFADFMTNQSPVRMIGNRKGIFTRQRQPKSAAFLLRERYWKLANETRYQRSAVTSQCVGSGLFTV
Assay: Glycosidase inhibition: β-Glucuronidase Bovine liver;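 also: bovine liver β-glucuronidase acting on p-nitrophenyl β-D-glucuronide substrate in citric acid/disodium hydrogen phosphate buffer, pH 5.0, 27 °C, mean of triplicate runs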
Format: biochemical
Details: approximately 0.8 mM
Experimental Readout: % Glucuronidase inhibition at 0.8 mM Bovine Liver (%)
Answer in %, number only, no unit symbol.

input: Quote % Glucuronidase inhibition at 0.8 mM Bovine Liver with test system β-Glucuronidase Bovine liver (Bos taurus, UniProt A3KMY8) for CC(=O)NC1NC[C@H](C(=O)O)[C@H](O)[C@@H]1O (stereo partly shown)
output: 97.9

input: Name the recorded % Glucuronidase inhibition at 0.8 mM Bovine Liver of C[N+]1(C)C[C@@H](O)[C@H](O)[C@H]1C(=O)[O-] , assay system β-Glucuronidase Bovine liver (Bos taurus, UniProt A3KMY8).
output: 3.8

input: Report % Glucuronidase inhibition at 0.8 mM Bovine Liver under test system β-Glucuronidase Bovine liver (Bos taurus, UniProt A3KMY8) for O=C(O)CCC1[C@H](CO)C(=O)[C@H](O)[C@H]1CO (stereo partly shown) .
output: 85.3

input: Param request: % Glucuronidase inhibition at 0.8 mM Bovine Liver | system β-Glucuronidase Bovine liver (Bos taurus, UniProt A3KMY8) | item O=C(O)[C@H]1NC(=O)[C@H](O)[C@@H](O)[C@@H]1O
output: 99.6

input: Output reported % Glucuronidase inhibition at 0.8 mM Bovine Liver of the compound O=C(O)[C@@]1(O)CNC[C@@H](O)[C@H]1O on β-Glucuronidase Bovine liver (Bos taurus, UniProt A3KMY8).
output: 58.6

input: Find % Glucuronidase inhibition at 0.8 mM Bovine Liver for C[C@@]1(C(=O)O)NC[C@H](O)[C@H]1O on β-Glucuronidase Bovine liver (Bos taurus, UniProt A3KMY8) and write it down.
output: 0.6

input: Specify the recorded % Glucuronidase inhibition at 0.8 mM Bovine Liver for C[N+]1([O-])CC[C@H](O)[C@@H]1C(=O)O (stereo partly shown) , system: β-Glucuronidase Bovine liver (Bos taurus, UniProt A3KMY8).
output: −4.4

input: Using β-Glucuronidase Bovine liver (Bos taurus, UniProt A3KMY8) as the test system, report measured % Glucuronidase inhibition at 0.8 mM Bovine Liver of O=C(O)[C@H]1NCC(O)C1O (stereo partly shown) .
output: 13.8

input: Give β-Glucuronidase Bovine liver (Bos taurus, UniProt A3KMY8) % Glucuronidase inhibition at 0.8 mM Bovine Liver for the following compound: C[N+]1(C)CCC[C@H]1C(=O)[O-]
output: −1.7

input: GET % Glucuronidase inhibition at 0.8 mM Bovine Liver | system: β-Glucuronidase Bovine liver (Bos taurus, UniProt A3KMY8) | item: CC[C@@H]1C(C)[C@H](C)CN1CCCC(C)=O (stereo partly shown)
output: −2

input: State the measured % Glucuronidase inhibition at 0.8 mM Bovine Liver (β-Glucuronidase Bovine liver (Bos taurus, UniProt A3KMY8)) of O=C(O)[C@@H]1[C@@H](O)[C@H](O)[C@H]2[C@@H](O)CCN21
output: −2.3

input: Give % Glucuronidase inhibition at 0.8 mM Bovine Liver for this entry on β-Glucuronidase Bovine liver (Bos taurus, UniProt A3KMY8): O=C(O)[C@H]1N[C@H](CO)C(O)[C@H](O)[C@@H]1O (stereo partly shown)
output: 3.3

input: Give β-Glucuronidase Bovine liver (Bos taurus, UniProt A3KMY8) % Glucuronidase inhibition at 0.8 mM Bovine Liver for the following compound: CC[C@@H]1C(=O)[C@H](O)CN1CCCCC(=O)O
output: 0.8

input: Give the observed % Glucuronidase inhibition at 0.8 mM Bovine Liver of CC(O)(CC(N)C(=O)O)C(=O)O (stereo not shown) for β-Glucuronidase Bovine liver (Bos taurus, UniProt A3KMY8).
output: −3.2

input: Identify measured % Glucuronidase inhibition at 0.8 mM Bovine Liver obtained with β-Glucuronidase Bovine liver (Bos taurus, UniProt A3KMY8) for O=C(O)[C@]1(O)NC[C@@H](O)[C@H]1O .
output: 1.4

input: Please report % Glucuronidase inhibition at 0.8 mM Bovine Liver with β-Glucuronidase Bovine liver (Bos taurus, UniProt A3KMY8) for item N[C@]1(C(=O)O)C[C@H](CO)C1 .
output: −2.2

Reference for the values: patent US20110015226A1
